Data provenance is patent US9901615B2.

Catalogue of MIC readings, one per entry.
# Test system: H. pylori ATCC 43504
# Assay type: cell-based, Helicobacter pylori
Where no end group is shown, it is not given here.
quantity-name: MIC

• QLQGKQVSGEVVQKVLQELIQSVAKP [TP5] = >12 µg/mL
• FDWDSVLKGVEGFVRGYF [TP1] = >12 µg/mL
• FIHHIIGGLFSAGKAIHRLIRRRRR [TP4, Nile tilapia piscidin 4] = 1.5 to 3 µg/mL
• FIHHIIGGLFSVGKHIHSLIHGH [TP3] = 8 to 12 µg/mL

---

# Test system: H. pylori ATCC 43629
# Format: cell-based, Helicobacter pylori
Where no end group is shown, it is not given here.
quantity-name: MIC

• QLQGKQVSGEVVQKVLQELIQSVAKP [TP5] = >12 µg/mL
• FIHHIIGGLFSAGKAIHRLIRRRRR [TP4, Nile tilapia piscidin 4] = 1.5 to 3 µg/mL
• FDWDSVLKGVEGFVRGYF [TP1] = >12 µg/mL
• FIHHIIGGLFSVGKHIHSLIHGH [TP3] = 8 to 12 µg/mL
